- System name: BRG-1 (Homo sapiens, UniProt P51532)
- Sequence (P51532 whole entry): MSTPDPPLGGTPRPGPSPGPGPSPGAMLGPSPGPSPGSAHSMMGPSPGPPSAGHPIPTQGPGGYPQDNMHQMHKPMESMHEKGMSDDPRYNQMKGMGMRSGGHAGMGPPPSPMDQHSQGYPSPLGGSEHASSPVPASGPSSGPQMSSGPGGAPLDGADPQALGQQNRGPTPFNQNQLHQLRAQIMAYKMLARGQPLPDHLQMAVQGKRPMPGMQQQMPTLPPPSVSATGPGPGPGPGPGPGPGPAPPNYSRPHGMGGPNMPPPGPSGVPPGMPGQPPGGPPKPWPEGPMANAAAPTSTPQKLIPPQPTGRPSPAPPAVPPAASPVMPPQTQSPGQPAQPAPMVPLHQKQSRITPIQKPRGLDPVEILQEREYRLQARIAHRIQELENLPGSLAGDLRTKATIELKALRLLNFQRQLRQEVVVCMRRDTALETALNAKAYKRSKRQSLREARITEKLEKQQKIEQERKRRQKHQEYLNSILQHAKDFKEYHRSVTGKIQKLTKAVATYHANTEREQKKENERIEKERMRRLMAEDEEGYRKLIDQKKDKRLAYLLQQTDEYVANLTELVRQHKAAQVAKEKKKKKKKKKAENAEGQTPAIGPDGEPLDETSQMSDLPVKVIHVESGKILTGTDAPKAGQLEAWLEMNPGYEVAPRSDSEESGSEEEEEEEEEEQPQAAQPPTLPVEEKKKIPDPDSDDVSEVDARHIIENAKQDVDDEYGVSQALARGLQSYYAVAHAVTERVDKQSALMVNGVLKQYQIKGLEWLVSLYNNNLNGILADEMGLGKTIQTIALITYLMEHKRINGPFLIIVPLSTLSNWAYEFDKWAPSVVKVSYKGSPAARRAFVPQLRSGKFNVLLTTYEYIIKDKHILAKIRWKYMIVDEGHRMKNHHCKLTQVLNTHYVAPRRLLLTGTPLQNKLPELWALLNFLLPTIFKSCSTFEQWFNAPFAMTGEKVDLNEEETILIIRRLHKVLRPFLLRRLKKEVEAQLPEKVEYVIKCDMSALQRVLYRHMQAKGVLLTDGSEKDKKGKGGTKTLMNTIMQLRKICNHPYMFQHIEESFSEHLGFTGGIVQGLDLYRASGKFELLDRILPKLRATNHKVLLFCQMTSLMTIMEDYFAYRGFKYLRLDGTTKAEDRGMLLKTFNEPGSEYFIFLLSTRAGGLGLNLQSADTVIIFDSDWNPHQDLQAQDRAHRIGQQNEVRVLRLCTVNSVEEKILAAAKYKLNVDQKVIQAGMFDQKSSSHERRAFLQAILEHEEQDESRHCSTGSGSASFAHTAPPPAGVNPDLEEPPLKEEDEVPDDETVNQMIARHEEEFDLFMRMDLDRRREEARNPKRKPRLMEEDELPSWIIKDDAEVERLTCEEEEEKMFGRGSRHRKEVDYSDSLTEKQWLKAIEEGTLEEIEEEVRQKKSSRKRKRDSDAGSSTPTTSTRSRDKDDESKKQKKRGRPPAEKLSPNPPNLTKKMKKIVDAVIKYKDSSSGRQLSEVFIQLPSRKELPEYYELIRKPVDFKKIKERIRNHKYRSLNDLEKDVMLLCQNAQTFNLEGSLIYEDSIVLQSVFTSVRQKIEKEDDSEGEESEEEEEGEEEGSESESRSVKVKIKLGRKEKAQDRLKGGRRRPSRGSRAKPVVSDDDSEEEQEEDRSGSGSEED
- Protocol summary: ATPase catalytic activity assay of BRG-1 (ADP-Glo)
- Type: biochemical
- Condition notes: ATPase catalytic activity, ADP-Glo; read-out: BRG1 IC50 (μM)*
Measured attribute: IC50

[[record]]
compound = "C[C@@]1(CO)CCc2c(C(=O)NCC(=O)Nc3nc(-c4cccc(-c5ccncc5)c4)cs3)cccc21 [Compound 197]"
result = "> 5 µM"

[[record]]
compound = "COc1cccc(-c2csc(NC(=O)CNC(=O)c3ccc4c(c3)[C@](C)(C#N)COC4)n2)c1F [Compound 402]"
result = "< 0.1 µM"

[[record]]
compound = "C[C@@H]1CN(c2cc(F)cc(-c3csc(NC(=O)CNC(=O)c4ccc(F)c(C(C)(C)CO)c4)n3)c2)C[C@H](C)O1 [Compound 198]"
result = "0.1 to 1 µM"

[[record]]
compound = "CC(=O)N(C)c1cc(-c2cccc(-c3csc(NC(=O)CNC(=O)c4cccc(C(C)(C)CN)c4)n3)c2)ccn1 [Compound 56]"
result = "1 to 5 µM"

[[record]]
compound = "C[C@@H]1CN(c2cccc(-c3csc(NC(=O)CNC(=O)c4cccc5c4OCC[C@@]5(C)CO)n3)c2)C[C@H](C)O1 [Compound 138]"
result = "> 5 µM"


So what does the record say about IC50 for Cc1cc(-c2cccc(-c3csc(NC(=O)CNC(=O)c4ccc(Cl)c(C(C)(C)CO)c4)n3)n2)ncn1 [Compound 216] ? 0.1 to 1 µM

What does the data say about its IC50? Entry: CC(C(F)(F)F)S(=O)(=O)c1cccc(C(=O)NCC(=O)Nc2nc(-c3cccc(-c4ccncc4)c3)cs2)c1 (stereo not shown) [Compound 112] 0.1 to 1 µM

###

- System name: BRM (Homo sapiens, UniProt P51531)
- Sequence (P51531 whole entry): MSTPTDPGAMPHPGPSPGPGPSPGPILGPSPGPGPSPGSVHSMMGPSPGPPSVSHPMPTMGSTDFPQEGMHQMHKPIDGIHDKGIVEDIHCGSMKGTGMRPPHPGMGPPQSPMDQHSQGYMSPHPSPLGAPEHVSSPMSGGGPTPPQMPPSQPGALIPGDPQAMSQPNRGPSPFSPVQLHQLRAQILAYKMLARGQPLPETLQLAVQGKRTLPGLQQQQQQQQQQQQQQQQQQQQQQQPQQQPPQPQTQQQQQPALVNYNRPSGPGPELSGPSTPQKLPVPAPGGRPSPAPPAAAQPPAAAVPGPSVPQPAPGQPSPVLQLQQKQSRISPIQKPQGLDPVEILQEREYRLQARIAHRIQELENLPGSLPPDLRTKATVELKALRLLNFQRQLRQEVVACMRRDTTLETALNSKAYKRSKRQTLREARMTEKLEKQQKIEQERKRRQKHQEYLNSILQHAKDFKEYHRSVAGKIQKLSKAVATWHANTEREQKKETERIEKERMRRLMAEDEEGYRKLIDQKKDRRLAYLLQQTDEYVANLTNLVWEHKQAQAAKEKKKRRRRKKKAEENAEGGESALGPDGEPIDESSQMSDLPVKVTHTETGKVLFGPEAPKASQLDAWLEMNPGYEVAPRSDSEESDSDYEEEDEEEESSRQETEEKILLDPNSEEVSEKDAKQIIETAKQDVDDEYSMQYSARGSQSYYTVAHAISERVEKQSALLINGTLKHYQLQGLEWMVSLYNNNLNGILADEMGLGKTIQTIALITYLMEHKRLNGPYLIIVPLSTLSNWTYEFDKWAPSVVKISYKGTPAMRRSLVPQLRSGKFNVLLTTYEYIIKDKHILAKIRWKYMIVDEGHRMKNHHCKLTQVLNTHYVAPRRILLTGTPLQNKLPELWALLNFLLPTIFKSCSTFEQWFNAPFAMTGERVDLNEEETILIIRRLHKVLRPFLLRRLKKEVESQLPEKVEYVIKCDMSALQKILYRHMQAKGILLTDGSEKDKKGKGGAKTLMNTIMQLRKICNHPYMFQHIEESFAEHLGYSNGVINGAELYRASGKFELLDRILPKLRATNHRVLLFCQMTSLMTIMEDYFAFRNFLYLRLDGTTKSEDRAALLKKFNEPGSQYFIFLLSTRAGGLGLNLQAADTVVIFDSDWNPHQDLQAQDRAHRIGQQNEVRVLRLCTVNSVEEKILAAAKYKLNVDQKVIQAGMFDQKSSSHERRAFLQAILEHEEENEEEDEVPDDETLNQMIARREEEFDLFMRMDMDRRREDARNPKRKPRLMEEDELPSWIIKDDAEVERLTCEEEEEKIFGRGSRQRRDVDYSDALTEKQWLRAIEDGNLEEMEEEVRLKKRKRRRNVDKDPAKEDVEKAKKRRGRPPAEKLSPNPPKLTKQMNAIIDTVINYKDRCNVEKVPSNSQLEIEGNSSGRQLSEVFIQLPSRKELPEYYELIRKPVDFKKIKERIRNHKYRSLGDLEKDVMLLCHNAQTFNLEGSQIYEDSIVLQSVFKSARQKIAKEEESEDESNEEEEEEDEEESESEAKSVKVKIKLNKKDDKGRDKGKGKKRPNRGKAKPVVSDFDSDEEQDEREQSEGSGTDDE
- Protocol summary: ATPase catalytic activity assay of BRM (ADP-Glo)
- Assay type: biochemical
Listed next: entries and their corresponding BRM Max % Inhibition.

[[record]]
molecule = "C[C@@H]1CN(c2cccc(-c3csc(NC(=O)CNC(=O)c4ccc5c(c4)C(F)(C(F)F)COC5)n3)c2)C[C@H](C)O1 (stereo in doubt) [Compound 308]"
result = ">95%"

[[record]]
molecule = "C[C@@]1(F)COCc2ccc(C(=O)NCC(=O)Nc3nc(-c4cccc(C(F)F)n4)cs3)cc21"
result = ">95%"

[[record]]
molecule = "Cc1cc(-c2cccc(-c3csc(NC(=O)CNC(=O)c4cccc(C(C)(C)C(C)C)c4)n3)c2)cc(C)n1"
result = ">60%"


Requested read-out: BRM Max % Inhibition. Entry: Cc1nccc(-c2cccc(-c3csc(NC(=O)CNC(=O)c4cccc(S(=O)(=O)C(C)C)c4)n3)c2)n1 >95%

Entry CC1(CO)CCc2ccc(C(=O)NCC(=O)Nc3nc(-c4cccc(-c5cccc(C#N)c5)c4)cs3)cc21 (centres unmarked) has what BRM Max % Inhibition? >95%

Which BRM Max % Inhibition is listed for Cn1ncc(-c2cccc(-c3csc(NC(=O)CNC(=O)c4cccc(C(C)(C)CO)c4)n3)c2)n1 ? >95%

###

- System name: BRG-1 (Homo sapiens)
- Protocol summary: ATPase catalytic activity assay of BRG-1 (ADP-Glo)
- Type: biochemical
- Condition notes: ATPase catalytic activity, ADP-Glo; read-out: BRG1 Max % Inhibition
Measured attribute: Emax

Emax of C[C@@H]1CN(c2cccc(-c3csc(NC(=O)CNC(=O)c4ccc5c(c4)[C@]4(CCC[C@@H]4O)CC5)n3)c2)C[C@H](C)O1 on BRG-1 (Homo sapiens)? > 50%

Quick check: Emax on BRG-1 (Homo sapiens), item Cc1ccc(C(=O)NCC(=O)Nc2nc(-c3cccc(N4C[C@@H](C)O[C@@H](C)C4)c3)cs2)cc1C(C)(C)CO ? > 90%

For the record C[C@@H]1CN(c2cccc(-c3csc(NC(=O)CNC(=O)c4ccc5c(c4)S(=O)(=O)CCC5)n3)c2)C[C@H](C)O1 , what value of Emax is listed for BRG-1 (Homo sapiens)? > 90%
